- measurementTarget: UniProt Q9H3N8
- Sequence (Q9H3N8 whole entry): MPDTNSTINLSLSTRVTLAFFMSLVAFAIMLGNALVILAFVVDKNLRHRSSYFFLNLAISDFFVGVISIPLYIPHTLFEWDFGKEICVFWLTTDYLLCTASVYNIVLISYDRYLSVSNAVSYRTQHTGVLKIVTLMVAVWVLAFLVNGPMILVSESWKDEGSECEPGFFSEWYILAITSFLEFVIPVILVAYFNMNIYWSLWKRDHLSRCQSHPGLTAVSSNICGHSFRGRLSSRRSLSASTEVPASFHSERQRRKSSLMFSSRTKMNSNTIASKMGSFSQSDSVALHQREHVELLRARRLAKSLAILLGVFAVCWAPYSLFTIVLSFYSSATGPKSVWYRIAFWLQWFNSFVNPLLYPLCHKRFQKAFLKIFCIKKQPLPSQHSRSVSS
- protocolDescription: Agonist activity at human histamine H4 receptor expressed in sf9 cell membrane co-expressing mammalian Galphai2 and Gbeta1gamma2 incubated for 90 mins by [35S]GTPgammaS binding assay
- Format: functional
observable: pEC50
Convention used: pEC50 is expressed as -log10 of the molar concentration.

N#C/N=C(/NCCSc1ccccc1)NC[C@@H]1CC[C@H](c2c[nH]cn2)C1 (racemic)
6.89
N#C/N=C(/NCCSc1ccccc1)NC[C@H]1CC[C@H](c2c[nH]cn2)C1 (racemic)
7.85
N#C/N=C(\NC[C@@H]1CC[C@H](c2c[nH]cn2)C1)NC1CC1 (racemic)
6.61
CC(C)CN/C(=N/C#N)NC[C@H]1CC[C@H](c2c[nH]cn2)C1 (racemic)
7.82

// switching to the query compound
Q: Using known records, supply pEC50 for `N#C/N=C(/NCCSc1ccccc1)NC[C@@H]1CC[C@H](c2c[nH]cn2)C1`
A: 6.53
